Reference for the values: the supplement of paper PMC5412046

- System: SB.mhdgc-1
- assayExplanation: viability at highest tested concentration (MAXR) relative to DMSO; higher = less cytotoxic
- experimentalContext: SB.mhdgc-1 (hereditary c.1380delA CDH1 gastric cancer)
Please use 1 for viability under 40% and -1 for everything else, ties included.

// below: answered compounds
C=CC(=O)Nc1cccc(Sc2nc(Nc3ccc(N4CCN(C)CC4)cc3)ncc2Cl)c1 [WZ-8040] (top concentration 46.0829 µM) | 1
CC(C)c1cc(C(C)C)c(CC(=O)N[S+](=O)([O-])Oc2c(C(C)C)cccc2C(C)C)c(C(C)C)c1 [Avasimibe] (top concentration 46.0829 µM) | 1
COC1(C[S+]([O-])c2ccccc2)CCN(CCc2c[nH]c3ccc(F)cc23)CC1 (configuration not stated) (top concentration 46.0829 µM) | 1
C[S+](=O)([O-])c1ccc(C(=O)Nc2ccc(Cl)c(-c3ccccn3)c2)c(Cl)c1 [Vismodegib] (top concentration 46.0829 µM) | -1
COc1cc2c(NC3CCN(C(C)C)CC3)nc(C3CCCCC3)nc2cc1OCCCN1CCCC1 [UNC-0638] (top concentration 46.0829 µM) | 1
N#CCNC(=O)c1ccc(-c2ccnc(Nc3ccc(N4CCOCC4)cc3)n2)cc1 [CYT387] (top concentration 46.0829 µM) | -1
Cc1c(O)cccc1C(=O)N[C@@H](CSc1ccccc1)[C@H](O)CN1C[C@H]2CCCC[C@H]2C[C@H]1C(=O)NC(C)(C)C [Viracept] (top concentration 46.0829 µM) | 1
C[C@]12C[C@H](O)[C@H]3[C@@H](CC\C4=C\C(=O)\C=C/[C@]34C)[C@@H]1CC[C@]2(O)C(=O)CO [Prednisolone] (top concentration 46.0829 µM) | -1

## Task A record lists CN1CC(=O)N2[C@H](c3ccc4c(c3)OCO4)c3[nH]c4ccccc4c3C[C@@H]2C1=O [Tadalafil] (top concentration 46.0829 µM) . Is its viability below 40%?
## Result -1

====

- Tested on: SB.mhdgc-1
- assayExplanation: viability at highest tested concentration (MAXR) relative to DMSO; higher = less cytotoxic
- experimentalContext: SB.mhdgc-1 (hereditary c.1380delA CDH1 gastric cancer)
Structures can show the parent of a compound that is named as a salt.
Please use Yes for viability under 50% and No for everything else, ties included.

OCC(O)C(O)C(O)CO (stereo not drawn) [Ribitol] (top concentration 46.0829 µM) | No

## Task A record lists COCCCC/C(=N\OCCN)c1ccc(C(F)(F)F)cc1 [Fluvoxamine maleate] (top concentration 46.0829 µM) . Is its viability below 50%?
## Result Yes

====

Documented viability across a set of compounds
- System: SB.mhdgc-1
- assayExplanation: viability at highest tested concentration (MAXR) relative to DMSO; higher = less cytotoxic
- experimentalContext: SB.mhdgc-1 (hereditary c.1380delA CDH1 gastric cancer)

Cc1ccnc(N[S+](=O)([O-])c2ccc(NC(=O)Nc3ccc([S+](=O)([O-])Nc4nccc(C)n4)cc3)cc2)n1 (top concentration 46.0829 µM) | 93.5%

## Task Form field - read-out: viability; system: SB.mhdgc-1; submitted item: OCc1ccccc1O[C@@H]1O[C@H](CO)[C@@H](O)[C@H](O)[C@H]1O [Salicin] (top concentration 46.0829 µM)
## Result 119%

## Task Also check CC(=O)OC[C@@H]1O[C@H]([C@H](OC(C)=O)[C@@H]1OC(C)=O)N2\C=C/C(=O)NC2=O [Uridine triacetate] (top concentration 46.0829 µM)
## Result 104%

====

- Tested on: SB.mhdgc-1
- assayExplanation: AC50 for growth inhibition (viability) (log10 M); higher = less potent
- experimentalContext: SB.mhdgc-1 (hereditary c.1380delA CDH1 gastric cancer)
assayEndpoint: AC50 for growth inhibition (log10 M)
Just the number, please, no unit after it.

## Task Look up AC50 for growth inhibition (log10 M): `Cc1cn2c(-c3cn[nH]c3)cnc2c(Nc2ccc(C(=O)N3CCNCC3)cc2F)n1`
## Result -4.98

## Task Also check `Oc1cccc(-c2nc(N3CCOCC3)c3oc4ncccc4c3n2)c1`
## Result -6.12

## Task Also check `Cc1nnc(C(C)C)n1[C@@H]1C[C@H]2CC[C@@H](C1)N2CC[C@H](NC(=O)C1CCC(F)(F)CC1)c1ccccc1`
## Result -5.18

## Task Also check `Nc1ncnc2c1c(-c1cnc3[nH]ccc3c1)nn2C1CCCC1`
## Result -5.78

====

- Test system: SB.mhdgc-1
- assayExplanation: AC50 for growth inhibition (viability) (log10 M); higher = less potent
- experimentalContext: SB.mhdgc-1 (hereditary c.1380delA CDH1 gastric cancer)
Structures can show the parent of a compound that is named as a salt.
assayEndpoint: AC50 for growth inhibition (log10 M)
Just the number, please, no unit after it.

## Task Look up AC50 for growth inhibition (log10 M): `Cc1ccc(NC(=O)C2(c3ccc4c(c3)OC(F)(F)O4)CC2)nc1-c1cccc(C(=O)O)c1`
## Result -6.73

## Task Also check `CCCCCCNC(=O)N1\C=C(F)/C(=O)NC1=O`
## Result -6.33

## Task Also check C[C@@H]\1COC(=N1)\NC2=CC3=C(C=C2)N=CN=C3NC4=CC(=C(OCC5=NC=CS5)C=C4)Cl [Varlitinib tosylate]
## Result -6.63

## Task Also check `C[C@]1(CO)CN(c2cc(C(=O)Nc3ccc4c(c3)-c3c(c(C(N)=O)nn3-c3ccc(F)cc3)CC4)c(Cl)cn2)C[C@@]1(C)CO`
## Result -5.43

## Task Also check `CCOC(=O)N1CCN(/[N+]([O-])=N/Oc2cc(O/N=[N+](\[O-])N3CCN(C(=O)OCC)CC3)c([N+](=O)[O-])cc2[N+](=O)[O-])CC1`
## Result -5.03

## Task Also check `Cc1cc(C[S+](=O)([O-])c2ccccc2)cc(OCc2ccc(CN3CCC[C@@H]3CO)cc2)c1`
## Result -4.78

====

- Test system: SB.msgc-1
- assayExplanation: viability at highest tested concentration (MAXR) relative to DMSO; higher = less cytotoxic
- experimentalContext: SB.msgc-1 (sporadic gastric cancer)
Where a name gives a salt, the structure may show the parent alone.
assayEndpoint: viability (%)
The reply should contain only the number, in %.

Here is how some molecules turned out for viability.
CCN1\C=C(\C(O)=O)C(=O)C2=C1C=C(N3CCNCC3)C(=C2)F [Norfloxacin] (top concentration 46.0829 µM) | 112
N=C(N)c1ccc(OCCCCCOc2ccc(C(=N)N)cc2)cc1 [Pentamidine isethionate] (top concentration 46.0829 µM) | 10.8
CCC(=O)N1CCN(CC1)C2=C(C=C(C=C2)N3C(=O)\C=C/C4=C3C5=CC(=CC=C5N=C4)C6=CN=C7C=CC=CC7=C6)C(F)(F)F [Torin-1] (top concentration 46.0829 µM) | 52.9
Nc1cccc2c1C(=O)N(C1CCC(=O)NC1=O)C2=O (centres undefined) [Pomalidomide] (top concentration 46.0829 µM) | 115
N=C(CCSCc1csc(N=C(N)N)n1)N[S+](N)(=O)[O-] [Famotidine] (top concentration 46.0829 µM) | 4.49

## Task Look up viability: CNC(=O)c1ccc2c(c1)NC(=O)/C2=C(\Nc1cccc(CN(C)C)c1)c1ccccc1 (top concentration 46.0829 µM)
## Result 64.9

## Task Also check CN1\C(=C(\O)C2=C(C=CS2)[S+]1([O-])=O)C(=O)NC3=CC=CC=N3 [Tenoxicam] (top concentration 46.0829 µM)
## Result 98

## Task Also check CC#CCn1c(N2CCC[C@@H](N)C2)nc2c1c(=O)n(Cc1nc(C)c3ccccc3n1)c(=O)n2C [Linagliptin] (top concentration 46.0829 µM)
## Result 77.9

## Task Also check Cn1c(CCCC(=O)O)nc2cc(N(CCCl)CCCl)ccc21 [Bendamustine] (top concentration 46.0829 µM)
## Result 84.1

## Task Also check O=C(CN1C(=O)C2(CCCC2)NC[C@H]1c1cc(F)cc(F)c1)Nc1ccc2c(c1)C[C@@]1(C2)C(=O)Nc2ncccc21 [MK-3207] (top concentration 46.0829 µM)
## Result 118

## Task Also check NC(=O)c1ccc2[nH]ccc2c1 [SD-169] (top concentration 46.0829 µM)
## Result 117

## Task Also check N/C1=N/C(=O)C/2=C(NC[C@@H](CNC3=CC=C(C=C3)C(=O)N[C@@H](CCC([O-])=O)C([O-])=O)N2C=O)\N1 [Calcium folinate] (top concentration 46.0829 µM)
## Result 128

## Task Also check CC(O)(C[S+](=O)([O-])c1ccc(F)cc1)C(=O)Nc1ccc(C#N)c(C(F)(F)F)c1 (centres undefined) [Bicalutamide] (top concentration 46.0829 µM)
## Result 0.377

## Task Also check O=C(NOCC(O)CO)c1cc(Br)c(F)c(F)c1Nc1ccc(I)cc1F (centres undefined) (top concentration 46.0829 µM)
## Result 60.1

## Task Also check CNCC[C@H](Oc1cccc2ccccc12)c1cccs1 [Duloxetine hydrochloride] (top concentration 46.0829 µM)
## Result 21.1

## Task Also check CC(C)C(=O)Nc1ccc([N+](=O)[O-])c(C(F)(F)F)c1 [Flutamide] (top concentration 46.0829 µM)
## Result 4.49

## Task Also check O=C1Nc2ccc(I)cc2/C1=C/c1cc(Br)c(O)c(Br)c1 [GW-5074] (top concentration 46.0829 µM)
## Result 53.8

## Task Also check OCCC#Cc1nc(-c2ccc(F)cc2)c(-c2ccncc2)n1CCCc1ccccc1 (top concentration 46.0829 µM)
## Result 51.1

## Task Also check CC[C@H](CC[C@@H](C)[C@H]1CC[C@H]2[C@@H]3C\C=C/4C[C@@H](O)CC[C@]4(C)[C@H]3CC[C@]12C)C(C)C [beta-Sitosterol] (top concentration 46.0829 µM)
## Result 102

## Task Also check CCN1CCCC1CNC(=O)c1cc(S(=O)(=O)CC)c(N)cc1OC (centres undefined) [Amisulpride] (top concentration 46.0829 µM)
## Result 106
